Parameter: Euclidean distance. Scope: all listed entries.
- Tested on: 786-O
- procedureText: Euclidean distance of Cell Painting phenotypic profile (signed KS, 77 features) to DMSO centroid (dimensionless distance); 5 or 10 uM (library dependent); higher = stronger phenotypic change vs DMSO (phenoactivity)
- assayConditions: 48 h
Counter-ions that a name gives are not always drawn.
readoutName: Euclidean distance

>>> resultvalue("CN1CCCN=C1/C=C/c1cccc(O)c1 [Oxantel Pamoate]")
0.869
>>> resultvalue("COc1ccc2c(c1)c(CC(=O)N1CCOCC1)c(C)n2C(=O)c1ccc(Cl)cc1")
0.785
>>> resultvalue("CCCCCCc1ccc(O)cc1O")
1.35
>>> resultvalue("CN(C)CCC=C1c2ccccc2C(C)(C)c2ccccc21 [Melitracen hydrochloride]")
1.33
>>> resultvalue("Cn1cc(-c2cnn3c(N)c(Br)c([C@@H]4CCCNC4)nc23)cn1")
2.18
>>> resultvalue("Nc1cc(F)ccc1NC(=O)/C=C/c1cnn(C/C=C/c2ccccc2)c1")
1.54
